# credit: patent US20240182556A1

The entries below come with measured Kd values attached.
Study system: T1, PE9413, C-terminal biotinylated peptide mapping on Exon6 of the SCF molecule (SCF248) (C-terminal biotin)
T1 construct: also called C-terminal biotinylated PE9413; C-ter PE9413
T1 peptide: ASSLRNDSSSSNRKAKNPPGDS
Assay: yeast-displayed scFv, flow cytometry titration of biotinylated peptide
Kindly provide the numeric value in nM only, without the unit symbol.

Solved cases below.
| Binder | Kd / nM |
| --- | --- |
| A104P scFv displayed on yeast (scFv, V domains shown, Aga2-anchored, VH-VL orientation; not shown: linker; SV5 tag) VH: QVQLVQSGAELKKPGSSVKISCKSSGYAFSSQWMNWVKQRPGQGLEWIGQIYPEDGDTHYNGKFKGKATLTADKSTSTAYMELSSLTSEDSAVYFCSSSNWVGSYWGQGTLVTVSS VL: DVVMTQSPLSLPVTLGQPASISCKSSQSLLEEDGNTYLNWLQQRPGQSPRRLIYLVDRLDSGVPDRFSGSGSGTDFTLKISRVEAEDVGVYYCWQGTDLPQTFGGGTKVEIK | 3.64 |
| A84P scFv displayed on yeast (scFv, V domains shown, Aga2-anchored, VH-VL orientation; not shown: linker; SV5 tag) VH: QVQLVQSGAELKKPGSSVKISCKSSGYAFSSQWMNWVKQRPGQGLEWIGQIYPEDGDTHMNGKFKGKATLTADKSTSTAYMELSSLTSEDSAVYFCSSSNWVGSYWGQGTLVTVSS VL: DVVMTQSPLSLPVTLGQPASISCKSSQSLLEEDGNTYLNWLQQRPGQSPRRLIYLVDRLDIGVPDRFSGSGSGTDFTLKISRVEAEDVGVYYCWQGTDLPQTFGGGTKVEIK | 2.52 |

Query: Consider the binder E94P scFv displayed on yeast (scFv, V domains shown, Aga2-anchored, VH-VL orientation; not shown: linker; SV5 tag) VH: QVQLVQSGAELKKPGSSVKISCKSSGYAFSSQWMNWVKQRPGQGLEWIGQIYPGDGDTHMNGKFKGKATLTADKSTSTAYMELSSLTSEDSAVYFCSSSNWVGSYWGQGTLVTVSS VL: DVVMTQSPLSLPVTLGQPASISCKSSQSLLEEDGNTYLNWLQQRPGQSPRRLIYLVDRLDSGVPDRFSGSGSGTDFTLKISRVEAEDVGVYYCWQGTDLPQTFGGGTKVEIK and give its measured Kd.
Result: 6.33

Query: Consider the binder D24P scFv displayed on yeast (scFv, V domains shown, Aga2-anchored, VH-VL orientation; not shown: linker; SV5 tag) VH: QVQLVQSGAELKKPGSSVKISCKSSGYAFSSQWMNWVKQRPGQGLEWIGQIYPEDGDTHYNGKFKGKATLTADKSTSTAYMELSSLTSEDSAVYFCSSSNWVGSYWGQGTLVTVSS VL: DVVMTQSPLSLPVTLGQPASISCKSSQSLLESDGNTYLNWLQQRPGQSPRRLIYLVSRLDIGVPDRFSGSGSGTDFTLKISRVEAEDVGVYYCWQGTDLPQTFGGGTKVEIK and give its measured Kd.
Result: 14.4

Query: Consider the binder D44P scFv displayed on yeast (scFv, V domains shown, Aga2-anchored, VH-VL orientation; not shown: linker; SV5 tag) VH: QVQLVQSGAELKKPGSSVKISCKSSGYAFSSQWMNWVKQRPGQGLEWIGQIYPEDGDIHYNGKFKGKATLTADKSTSTAYMELSSLTSEDSAVYFCSSSNWVGSYWGQGTLVTVSS VL: DVVMTQSPLSLPVTLGQPASISCKSSQSLLEEDGNTYLNWLQQRPGQSPRRLIYLVDRLDSGVPDRFSGSGSGTDFTLKISRVEAEDVGVYYCWQGSHLPQTFGGGTKVEIK and give its measured Kd.
Result: 4.18

Query: Consider the binder B23P scFv displayed on yeast (scFv, V domains shown, Aga2-anchored, VH-VL orientation; not shown: linker; SV5 tag) VH: QVQLVQSGAELKKPGSSVKISCKSSGYAFSSYYMNWVKQRPGQGLEWIGQIYPGDGDTHMNGKFKGKATLTADKSTSTAYMELSSLTSEDSAVYFCSSSNWVGSYWGQGTLVTVSS VL: DVVMTQSPLSLPVTLGQPASISCKSSQSLLESDGNTYLNWLQQRPGQSPRRLIYLVSRRDSGVPDRFSGSGSGTDFTLKISRVEAEDVGVYYCWQGTDLPQTFGGGTKVEIK and give its measured Kd.
Result: 5.3
